# target-entity: Flt3 kinase (Homo sapiens, UniProt P36888)
# Construct: recombinant N-terminal 6×His-tagged Flt3 kinase domain construct expressed from baculovirus; 6xHis (N); made in house
# Sequence (P36888 610-943 limits assumed): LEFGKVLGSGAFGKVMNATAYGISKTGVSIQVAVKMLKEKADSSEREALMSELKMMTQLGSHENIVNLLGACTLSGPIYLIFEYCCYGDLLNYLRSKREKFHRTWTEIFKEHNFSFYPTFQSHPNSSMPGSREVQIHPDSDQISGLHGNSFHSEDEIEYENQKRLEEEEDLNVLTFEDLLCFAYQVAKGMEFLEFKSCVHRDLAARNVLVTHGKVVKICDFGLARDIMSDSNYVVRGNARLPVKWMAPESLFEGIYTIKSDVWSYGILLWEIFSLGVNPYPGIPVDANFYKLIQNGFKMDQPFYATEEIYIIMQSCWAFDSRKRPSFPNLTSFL
# procedure-text: Flt3 kinase assay (33P incorporation into Poly(Glu-Tyr))
# Assay type: biochemical
# conditions-used: 100 nM test compound; read-out: Inhibition at 100 nM (%) Flt-3
result-type: inhibition at 0.1 µM (%)

INSERT INTO results (compound, result_type, endpoint_result) VALUES
  ('CCOC(=O)CCc1c(/C=C2\C(=O)Nc3cc(-c4ccc(O)cc4)ccc32)[nH]c2c1C(=O)CCC2 [DCB-70066]', 'inhibition at 0.1 µM', 38.6),
  ('O=C(O)CCc1c(/C=C2\C(=O)Nc3ccc(S(=O)(=O)Cc4c(Cl)cccc4Cl)cc32)[nH]c2c1C(=O)CCC2 [DCB-70073]', 'inhibition at 0.1 µM', 1.4),
  ('CCOC(=O)CCc1c(/C=C2\C(=O)Nc3ccc(Br)cc32)[nH]c2c1C(=O)CCC2 [DCB-70056]', 'inhibition at 0.1 µM', 99.2);

P: O=C1Nc2ccc(F)cc2/C1=C/c1[nH]c2c(c1CCC(=O)N1CCOCC1)C(=O)CCC2 [DCB-70125]
Q: O=C(O)CCc1c(/C=C2\C(=O)Nc3cc(-c4cc5ccccc5s4)ccc32)[nH]c2c1C(=O)CCC2 [DCB-70080]
Query: Hi there, can you help? I need to know whether P or Q has lower measured inhibition at 0.1 µM. Write the label of whichever entry you select.
Result: Q

1: CN(c1cccc(Cl)c1)S(=O)(=O)c1ccc2c(c1)/C(=C/c1[nH]c3c(c1CCC(=O)O)C(=O)CCCC3)C(=O)N2 [DCB-70148]
2: CCOC(=O)CCc1c(/C=C2\C(=O)Nc3ccc(NCc4ccccc4)cc32)[nH]c2c1C(=O)CCC2 [DCB-70131]
3: CC(=O)Nc1ccc2c(c1)/C(=C/c1[nH]c3c(c1CCC(=O)O)C(=O)CCC3)C(=O)N2 [DCB-70104]
4: CCOC(=O)CCc1c(/C=C2\C(=O)Nc3cc(-c4ccc(O)c(O)c4)ccc32)[nH]c2c1C(=O)CCC2 [DCB-70077]
5: CCOC(=O)CCc1c(/C=C2\C(=O)Nc3cc(-c4ccc5c(c4)OCO5)ccc32)[nH]c2c1C(=O)CCC2 [DCB-70128]
Query: Order these by inhibition at 0.1 µM, descending, and give the full ranking. In your reply, arrange the labels in the requested order.
Result: 2, 4, 3, 1, 5

1: CCOC(=O)CCc1c(/C=C2\C(=O)Nc3ccc(-c4ccc(F)cc4)cc32)[nH]c2c1C(=O)CCC2 [DCB-70108]
2: O=C(O)CCc1c(/C=C2\C(=O)Nc3cc(-c4ccc(F)cc4)ccc32)[nH]c2c1C(=O)CCC2 [DCB-70099]
Query: Hi there, can you help? I need to know whether 1 or 2 has lower measured inhibition at 0.1 µM. Write the label of whichever entry you select.
Result: 2

1: O=C(O)CCc1c(/C=C2\C(=O)Nc3ccc(S(=O)(=O)N4CCc5ccccc54)cc32)[nH]c2c1C(=O)CCC2 [DCB-70106]
2: CCOC(=O)CCc1c(/C=C2\C(=O)Nc3ccc(-c4ccc(OC)c(OC)c4)cc32)[nH]c2c1C(=O)CCC2 [DCB-70067]
3: O=C(O)CCc1c(/C=C2\C(=O)Nc3cc(-c4ccc(O)c(O)c4)ccc32)[nH]c2c1C(=O)CCC2 [DCB-70078]
Query: Order these by inhibition at 0.1 µM, descending, and give the full ranking. In your reply, arrange the labels in the requested order.
Result: 3, 2, 1

1: CCS(=O)(=O)c1ccc2c(c1)/C(=C/c1[nH]c3c(c1CCC(=O)O)C(=O)CCC3)C(=O)N2 [DCB-70116]
2: CCOC(=O)CCc1c(/C=C2\C(=O)Nc3ccc(NC(=O)Nc4ccc(C)cc4)cc32)[nH]c2c1C(=O)CCC2 [DCB-70091]
3: CCOC(=O)CCc1c(/C=C2\C(=O)Nc3ccccc32)[nH]c2c1C(=O)CCC2 [DCB-70049]
4: CCOC(=O)CCc1c(/C=C2\C(=O)Nc3cc(-c4ccc(O)c(OC)c4)ccc32)[nH]c2c1C(=O)CCC2 [DCB-70081]
Query: Rank items: key inhibition at 0.1 µM, increasing. In your reply, arrange the labels in the requested order.
Result: 2, 1, 4, 3
(2: 11.1%, 1: 19.4%, 4: 30%, 3: 90.2%)

1: CCOC(=O)CCc1c(/C=C2\C(=O)Nc3ccc(NC(=O)Nc4ccc(Br)cc4)cc32)[nH]c2c1C(=O)CCC2 [DCB-70135]
2: O=C(O)CCc1c(/C=C2\C(=O)Nc3ccccc32)[nH]c2c1C(=O)CCC2 [DCB-70052]
Query: Hi there, can you help? I need to know whether 1 or 2 has lower measured inhibition at 0.1 µM. Write the label of whichever entry you select.
Result: 1
(1: 20.3%, 2: 72.1%)

1: COc1ccc(-c2ccc3c(c2)/C(=C/c2[nH]c4c(c2CCC(=O)O)C(=O)CCC4)C(=O)N3)cc1OC [DCB-70068]
2: NS(=O)(=O)c1ccc2c(c1)/C(=C/c1[nH]c3c(c1CCC(=O)O)C(=O)CCC3)C(=O)N2 [DCB-70095]
Query: Hi there, can you help? I need to know whether 1 or 2 has lower measured inhibition at 0.1 µM. Write the label of whichever entry you select.
Result: 1

----------
# target-entity: c-Met kinase (Homo sapiens, UniProt P08581)
# Construct: recombinant N-terminal 6×His-tagged c-Met kinase domain construct expressed from baculovirus; 6xHis (N); made in house
# Sequence (P08581 1078-1345 limits assumed): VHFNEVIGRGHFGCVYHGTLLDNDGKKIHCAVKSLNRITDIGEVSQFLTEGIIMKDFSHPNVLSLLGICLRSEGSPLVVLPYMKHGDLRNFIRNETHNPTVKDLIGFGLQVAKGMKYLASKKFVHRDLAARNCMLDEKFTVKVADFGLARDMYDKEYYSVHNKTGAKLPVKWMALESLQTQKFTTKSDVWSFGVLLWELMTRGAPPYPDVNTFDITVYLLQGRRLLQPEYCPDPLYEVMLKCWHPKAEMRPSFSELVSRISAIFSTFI
# procedure-text: c-Met kinase assay (33P incorporation into Poly(Glu-Tyr))
# Format: biochemical
# conditions-used: 500 nM test compound
result-type: inhibition at 0.5 µM (%)

INSERT INTO assay_data (compound, target_entity, endpoint_result) VALUES
  ('CCOC(=O)CCc1c(/C=C2\C(=O)Nc3ccc(-c4ccc(O)c(OC)c4)cc32)[nH]c2c1C(=O)CCC2 [DCB-70058]', 'c-Met kinase (Homo sapiens, UniProt P08581)', 9.7),
  ('CCOC(=O)CCc1c(/C=C2\C(=O)Nc3ccc(NC(C)c4ccccc4)cc32)[nH]c2c1C(=O)CCC2 (stereo not shown) [DCB-70179]', 'c-Met kinase (Homo sapiens, UniProt P08581)', 17.9);

P: CCOC(=O)CCc1c(/C=C2\C(=O)Nc3ccc(NC(=O)NC45CC6CC(CC(C6)C4)C5)cc32)[nH]c2c1C(=O)CCC2 [DCB-70174]
Q: O=C(O)CCc1c(/C=C2\C(=O)Nc3ccc(S(=O)(=O)N4CCc5ccccc54)cc32)[nH]c2c1C(=O)CCC2 [DCB-70106]
Query: Between P and Q , whose measured inhibition at 0.5 µM reads higher? Write the label of whichever entry you select.
Result: Q

----------
# target-entity: PDGFR-β kinase (Homo sapiens)
# Construct: recombinant N-terminal 6×His-tagged PDGFR-β kinase domain construct expressed by baculovirus; 6xHis (N); made in house
# Sequence (P09619 600-962 limits assumed): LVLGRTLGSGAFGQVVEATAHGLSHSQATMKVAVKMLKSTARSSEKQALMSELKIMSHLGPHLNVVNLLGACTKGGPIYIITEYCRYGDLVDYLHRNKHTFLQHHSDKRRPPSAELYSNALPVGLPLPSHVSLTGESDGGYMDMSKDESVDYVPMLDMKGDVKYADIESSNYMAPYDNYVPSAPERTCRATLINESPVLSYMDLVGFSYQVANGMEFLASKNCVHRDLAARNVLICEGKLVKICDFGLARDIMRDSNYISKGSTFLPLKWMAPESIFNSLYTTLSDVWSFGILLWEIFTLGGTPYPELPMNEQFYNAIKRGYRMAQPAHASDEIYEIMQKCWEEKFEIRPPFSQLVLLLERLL
# procedure-text: PDGFR-β kinase assay (33P incorporation into Poly(Glu-Tyr))
# Assay type: biochemical
# conditions-used: 500 nM test compound
result-type: inhibition at 0.5 µM (%)

Solved entries (count: 2):
INSERT INTO assay_data (chemical_structure, target_entity, result_type, endpoint_result) VALUES
  ('COc1ccc(-c2ccc3c(c2)/C(=C/c2[nH]c4c(c2CCC(=O)O)C(=O)CCC4)C(=O)N3)cc1OC', 'PDGFR-β kinase (Homo sapiens)', 'inhibition at 0.5 µM', 20.6),
  ('CCOC(=O)CCc1c(/C=C2\C(=O)Nc3ccc([N+](=O)[O-])cc32)[nH]c2c1C(=O)CCC2', 'PDGFR-β kinase (Homo sapiens)', 'inhibition at 0.5 µM', 67.5);

P: CCOC(=O)CCc1c(/C=C2\C(=O)Nc3ccc(NC(=O)c4ccccc4)cc32)[nH]c2c1C(=O)CCC2
Q: CCOC(=O)CCc1c(/C=C2\C(=O)Nc3cc(-c4ccc(O)c(O)c4)ccc32)[nH]c2c1C(=O)CCC2
R: CCOC(=O)CCc1c(/C=C2\C(=O)Nc3ccc(NC(=O)c4ccc(F)cc4)cc32)[nH]c2c1C(=O)CCC2
Query: Rank items: key inhibition at 0.5 µM, increasing. In your reply, arrange the labels in the requested order.
Result: R, P, Q

----------
# target-entity: VEGFR2 kinase (Homo sapiens, UniProt P35968)
# Construct: recombinant N-terminal 6×His-tagged VEGFR2 kinase domain construct expressed by baculovirus; 6xHis (N); made in house
# Sequence (P35968 834-1162 limits assumed): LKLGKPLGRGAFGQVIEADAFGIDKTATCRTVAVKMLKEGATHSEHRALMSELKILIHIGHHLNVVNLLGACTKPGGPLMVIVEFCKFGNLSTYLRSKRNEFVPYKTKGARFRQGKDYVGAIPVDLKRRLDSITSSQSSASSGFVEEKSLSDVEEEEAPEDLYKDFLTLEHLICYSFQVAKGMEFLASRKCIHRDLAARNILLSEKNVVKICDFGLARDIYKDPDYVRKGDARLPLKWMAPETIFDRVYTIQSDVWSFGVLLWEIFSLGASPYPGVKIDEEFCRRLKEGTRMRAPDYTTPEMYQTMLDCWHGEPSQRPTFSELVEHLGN
# procedure-text: VEGFR2 kinase assay (33P incorporation into Poly(Glu-Tyr))
# Assay type: biochemical
# conditions-used: 500 nM test compound; read-out: Inhibition at 500 nM (%) VEGFr-2
result-type: inhibition at 0.5 µM (%)

Solved entries (count: 8):
INSERT INTO results (chemical_structure, unit_text, endpoint_result) VALUES
  ('CCOC(=O)CCc1c(/C=C2\C(=O)Nc3ccc(NC(=O)Nc4ccccc4)cc32)[nH]c2c1C(=O)CCC2', '%', 20.7),
  ('CCOC(=O)CCc1c(/C=C2\C(=O)Nc3cc(F)ccc32)[nH]c2c1C(=O)CCC2', '%', 84),
  ('O=C(O)CCc1c(/C=C2\C(=O)Nc3cc(F)ccc32)[nH]c2c1C(=O)CCC2', '%', 90.8),
  ('CCOC(=O)CCc1c(/C=C2\C(=O)Nc3ccc(Br)cc32)[nH]c2c1C(=O)CCC2', '%', 89.6),
  ('CCOC(=O)CCc1c(/C=C2\C(=O)Nc3ccc(NS(=O)(=O)CC)cc32)[nH]c2c1C(=O)CCC2', '%', 51.9),
  ('O=C(O)CCc1c(/C=C2\C(=O)Nc3cc(-c4ccc(O)c(O)c4)ccc32)[nH]c2c1C(=O)CCC2', '%', 98.9),
  ('O=C(O)CCc1c(/C=C2\C(=O)Nc3ccc(S(=O)(=O)N4CCCC4)cc32)[nH]c2c1C(=O)CCC2', '%', 26.3),
  ('O=C(O)CCc1c(/C=C2\C(=O)Nc3cc(-c4cc(F)cc(F)c4)ccc32)[nH]c2c1C(=O)CCC2', '%', 73.8);

a: O=C(O)CCc1c(/C=C2\C(=O)Nc3ccc(S(=O)(=O)N4CCc5ccccc54)cc32)[nH]c2c1C(=O)CCC2
b: O=C(O)CCc1c(/C=C2\C(=O)Nc3cc(-c4ccc(F)cc4)ccc32)[nH]c2c1C(=O)CCC2
Query: Hi there, can you help? I need to know whether a or b has lower measured inhibition at 0.5 µM. Write the label of whichever entry you select.
Result: a
(a: 46.4%, b: 79%)

A: CCOC(=O)CCc1c(/C=C2\C(=O)Nc3cc(-c4ccc(O)cc4)ccc32)[nH]c2c1C(=O)CCC2
B: CCOC(=O)CCc1c(/C=C2\C(=O)Nc3ccc(NS(=O)(=O)c4ccc(F)cc4)cc32)[nH]c2c1C(=O)CCC2
C: CCOC(=O)CCc1c(/C=C2\C(=O)Nc3ccc(NC(=O)c4ccc([N+](=O)[O-])cc4)cc32)[nH]c2c1C(=O)CCC2
Query: Order these by inhibition at 0.5 µM, descending, and give the full ranking. In your reply, arrange the labels in the requested order.
Result: A, B, C
(A: 94.3%, B: 40.8%, C: 27.6%)

a: O=C(O)CCc1c(/C=C2\C(=O)Nc3ccc(S(=O)(=O)Cc4ccc(F)cc4)cc32)[nH]c2c1C(=O)CCC2
b: CCOC(=O)CCc1c(/C=C2\C(=O)Nc3ccc(NC(=O)c4ccccc4)cc32)[nH]c2c1C(=O)CCC2
Query: Hi there, can you help? I need to know whether a or b has lower measured inhibition at 0.5 µM. Write the label of whichever entry you select.
Result: b
(b: 44.2%, a: 86%)

A: O=C(O)CCc1c(/C=C2\C(=O)Nc3ccc([N+](=O)[O-])cc32)[nH]c2c1C(=O)CCC2
B: CCOC(=O)CCc1c(/C=C2\C(=O)Nc3ccc(NC(=O)Nc4ccc(Br)cc4)cc32)[nH]c2c1C(=O)CCC2
Query: Hi there, can you help? I need to know whether A or B has lower measured inhibition at 0.5 µM. Write the label of whichever entry you select.
Result: B
(B: 44.6%, A: 82.7%)
